Experiment: AUC (0 to infinity) in dog at 10 mg/kg, po administered as single dose
Type: ADME, organism-based, Canis lupus familiaris
Design: time infinity, dose 10 mg/kg, route oral
Conditions: plasma
Below: a set of entries, each annotated with reported AUC(0-inf).
Express your answer in µg·h/mL, writing the number without its unit.

substance_smiles: CC(C)CN(C[C@@H](O)[C@H](Cc1ccccc1)NC(=O)OCc1cncs1)C(=O)c1ccc2nc(N)sc2c1
AUC(0-inf) [µg·h/mL]: 0.2
--
substance_smiles: CCN(C)c1nc2ccc(C(=O)N(CC(C)C)C[C@@H](O)[C@H](Cc3ccccc3)NC(=O)OCc3cncs3)cc2o1
AUC(0-inf) [µg·h/mL]: 2.24

Moving on to the next molecule.
Which AUC(0-inf) reading was recorded for the molecule `CC(C)CN(C[C@@H](O)[C@H](Cc1ccccc1)NC(=O)OCc1cncs1)C(=O)c1ccc2ncsc2c1` ?
2.24

* * *

Below: a set of entries, each annotated with reported AUC(0-inf).
Experiment: AUC (0 to infinity) in dog at 7.5 mg/kg, po
Format: ADME, organism-based, Canis lupus familiaris
Set-up: time infinity, dose 7.5 mg/kg, route oral
Conditions: plasma
Express your answer in ng·h/mL, writing the number without its unit.

// below: answered compounds
substance_smiles: CC(C)CN(C[C@@H](O)[C@H](Cc1ccccc1)NC(=O)OCc1cncs1)C(=O)c1ccc2nc(N)sc2c1
AUC(0-inf), ng·h/mL: 6480

substance_smiles: CCN(C)c1nc2ccc(C(=O)N(CC(C)C)C[C@@H](O)[C@H](Cc3ccccc3)NC(=O)OCc3cncs3)cc2o1
AUC(0-inf), ng·h/mL: 2000

Moving on to the next compound.
Which AUC(0-inf) reading was recorded for the compound `CC(C)CN(C[C@@H](O)[C@H](Cc1ccccc1)NC(=O)OCc1cncs1)C(=O)c1ccc2ncsc2c1` ?
7070

* * *

Test: Apparent permeability across human Caco2 cells at 10 uM at pH 5.5 after 60 mins
Format: ADME, cell-based
Details: Caco-2, pH 5.5
recorded_endpoint: Papp at 1 h, 10 µM
Your answer should be a number followed by the unit of measure.

// below: answered compounds
substance_smiles: CC(C)CN(C[C@@H](O)[C@H](Cc1ccccc1)NC(=O)OCc1cncs1)C(=O)c1ccc2nc(N)sc2c1
Papp at 1 h, 10 µM: 0.52 ×10⁻⁶ cm/s
--
substance_smiles: CCN(C)c1nc2ccc(C(=O)N(CC(C)C)C[C@@H](O)[C@H](Cc3ccccc3)NC(=O)OCc3cncs3)cc2o1
Papp at 1 h, 10 µM: 10 ×10⁻⁶ cm/s

Moving on to the next compound.
Which Papp at 1 h, 10 µM reading was recorded for the compound `CC(C)CN(C[C@@H](O)[C@H](Cc1ccccc1)NC(=O)OCc1cncs1)C(=O)c1ccc2ncsc2c1` ?
11 ×10⁻⁶ cm/s

* * *

System: Human immunodeficiency virus 1
Experiment: Antiviral activity against wild type HIV1 3B infected in human MT4 LTR-EGFP cells by EGFP reporter gene assay
Type: functional, organism-based
Conditions: Human immunodeficiency virus 1, 3B
pEC50: −log10 of the molar value.
recorded_endpoint: pEC50

// below: answered compounds
compound: CC(C)CN(C[C@@H](O)[C@H](Cc1ccccc1)NC(=O)OCc1cncs1)C(=O)c1ccc2nc(C(C)C)oc2c1
test_system: Human immunodeficiency virus 1
pEC50: 4.35
--
compound: CC(C)CN(C[C@@H](O)[C@H](Cc1cccnc1)NC(=O)OCc1cncs1)C(=O)c1ccc2ncsc2c1
test_system: Human immunodeficiency virus 1
pEC50: < 4.00
--
compound: CC(C)(O)CN(C[C@@H](O)[C@H](Cc1ccccc1)NC(=O)OCc1cncs1)C(=O)c1ccc2nc(N3CCCC3)oc2c1
test_system: Human immunodeficiency virus 1
pEC50: < 4.00
--
compound: C#CCN(C)c1nc2ccc(C(=O)N(CC(C)C)C[C@@H](O)[C@H](Cc3ccccc3)NC(=O)OCc3cncs3)cc2o1
test_system: Human immunodeficiency virus 1
pEC50: 4.32
--
compound: CCN(C)c1nc2ccc(C(=O)N(CC(C)C)C[C@@H](O)[C@H](Cc3ccc(F)cc3)NC(=O)OCc3cncs3)cc2o1
test_system: Human immunodeficiency virus 1
pEC50: 4.33

Which pEC50 reading was recorded for the compound `CN(C[C@@H](O)[C@H](Cc1ccccc1)NC(=O)OCc1cncs1)C(=O)c1ccc2nc(N3CCCC3)oc2c1` ?
< 4.00

Which pEC50 reading was recorded for the compound `CC(C)CN(C[C@@H](O)[C@H](Cc1ccccc1)NC(=O)OCc1cncs1)C(=O)c1ccc2nc(NCCN(C)C)oc2c1` ?
< 4.00

Which pEC50 reading was recorded for the compound `CC(C)CN(C[C@@H](O)[C@H](Cc1ccccc1)NC(=O)OCc1cncs1)C(=O)c1ccc2ncoc2c1` ?
< 4.00

Which pEC50 reading was recorded for the compound `CC(C)CN(C[C@@H](O)[C@H](Cc1ccccc1)NC(=O)OCc1cncs1)C(=O)c1ccc2nc(N(C)CCN(C)C)oc2c1` ?
4.20

Which pEC50 reading was recorded for the compound `O=C(N[C@@H](Cc1ccccc1)[C@H](O)CN(CCN1CCOCC1)C(=O)c1ccc2nc(N3CCCC3)oc2c1)OCc1cncs1` ?
< 4.00

* * *

Test system: Human immunodeficiency virus 1
Experiment: Antiviral activity against wild type HIV1 3B infected in human MT4 LTR-EGFP cells by EGFP reporter gene assay
Format: functional, organism-based
Settings: Human immunodeficiency virus 1, 3B
recorded_endpoint: EC50 (µM)
Express your answer in µM, writing the number without its unit.

// below: answered compounds
substance_smiles: CC(C)CN(C[C@@H](O)[C@H](Cc1ccccc1)NC(=O)OCc1cncs1)C(=O)c1ccc2nc(N3CCCCC3)oc2c1
EC50 (µM): 36
//
substance_smiles: CC(C)CN(C[C@@H](O)[C@H](Cc1ccccc1)NC(=O)OCc1cncs1)C(=O)c1ccc2nc(NCCCn3ccnc3)oc2c1
EC50 (µM): 87

What value of EC50 on Human immunodeficiency virus 1 does `C#CCN(C[C@@H](O)[C@H](Cc1ccccc1)NC(=O)OCc1cncs1)C(=O)c1ccc2nc(N(C)CC)oc2c1` have?
60

* * *

Below: a set of entries, each annotated with reported Cmax.
Assay: Cmax in dog at 7.5 mg/kg, po
Format: ADME, organism-based, Canis lupus familiaris
Design: dose 7.5 mg/kg, route oral
Conditions: in vivo
Express your answer in ng/mL, writing the number without its unit.

// below: answered molecules
substance_smiles: CC(C)CN(C[C@@H](O)[C@H](Cc1ccccc1)NC(=O)OCc1cncs1)C(=O)c1ccc2ncsc2c1
unit_abbrev: ng/mL
Cmax: 2100
//
substance_smiles: CCN(C)c1nc2ccc(C(=O)N(CC(C)C)C[C@@H](O)[C@H](Cc3ccccc3)NC(=O)OCc3cncs3)cc2o1
unit_abbrev: ng/mL
Cmax: 610

Moving on to the next molecule.
Which Cmax reading was recorded for the molecule `CC(C)CN(C[C@@H](O)[C@H](Cc1ccccc1)NC(=O)OCc1cncs1)C(=O)c1ccc2nc(N)sc2c1` ?
2300

* * *

Experiment: Tmax in dog at 10 mg/kg, po administered as single dose
Format: ADME, organism-based, Canis lupus familiaris
Design: dose 10 mg/kg, route oral
Details: in vivo
Below: a set of entries, each annotated with reported Tmax.
Express your answer in h, writing the number without its unit.

// below: answered compounds
substance_smiles: CC(C)CN(C[C@@H](O)[C@H](Cc1ccccc1)NC(=O)OCc1cncs1)C(=O)c1ccc2nc(N)sc2c1
measured: 1

substance_smiles: CC(C)CN(C[C@@H](O)[C@H](Cc1ccccc1)NC(=O)OCc1cncs1)C(=O)c1ccc2ncsc2c1
measured: 1

Moving on to the next compound.
Which Tmax reading was recorded for the compound `CCN(C)c1nc2ccc(C(=O)N(CC(C)C)C[C@@H](O)[C@H](Cc3ccccc3)NC(=O)OCc3cncs3)cc2o1` ?
0.5

* * *

Assay: Cmax in rat at 10 mg/kg, po administered as single dose
Assay type: ADME, organism-based
Set-up: dose 10 mg/kg, route oral
Conditions: in vivo
recorded_endpoint: Cmax (ng/mL)
Express your answer in ng/mL, writing the number without its unit.

substance_smiles: CC(C)CN(C[C@@H](O)[C@H](Cc1ccccc1)NC(=O)OCc1cncs1)C(=O)c1ccc2nc(N)sc2c1
measured: 10
//
substance_smiles: CCN(C)c1nc2ccc(C(=O)N(CC(C)C)C[C@@H](O)[C@H](Cc3ccccc3)NC(=O)OCc3cncs3)cc2o1
measured: 240

Which Cmax reading was recorded for the compound `CC(C)CN(C[C@@H](O)[C@H](Cc1ccccc1)NC(=O)OCc1cncs1)C(=O)c1ccc2ncsc2c1` ?
2800

* * *

Assay: Cmax in dog at 10 mg/kg, po administered as single dose
Type: ADME, organism-based, Canis lupus familiaris
Set-up: dose 10 mg/kg, route oral
Conditions: in vivo
recorded_endpoint: Cmax (ng/mL)
Express your answer in ng/mL, writing the number without its unit.

substance_smiles: CC(C)CN(C[C@@H](O)[C@H](Cc1ccccc1)NC(=O)OCc1cncs1)C(=O)c1ccc2nc(N)sc2c1
Cmax, ng/mL: 140
//
substance_smiles: CCN(C)c1nc2ccc(C(=O)N(CC(C)C)C[C@@H](O)[C@H](Cc3ccccc3)NC(=O)OCc3cncs3)cc2o1
Cmax, ng/mL: 1010

Which Cmax reading was recorded for the molecule `CC(C)CN(C[C@@H](O)[C@H](Cc1ccccc1)NC(=O)OCc1cncs1)C(=O)c1ccc2ncsc2c1` ?
5200

meta.source: ChEMBL document CHEMBL2057069
